TEST SYSTEM: IGF-1R (Homo sapiens)
Construct: purchased Upstate Co. 14-465
TEST SUMMARY: IGF-1R inhibitory activity (kinase reaction, time-resolved fluoroimmunoassay)
Format: biochemical
CONDITION PARAMETERS: IGF-1R active recombinant enzyme, test compound 10 μmol/L
Where a name gives a salt, the structure may show the parent alone.
OBSERVABLE: inhibition at 10 µM (%)
Enter your answer as a number in %; do not include the unit.

Looking up Cc1csc(NC(=O)c2ccccc2/C=C/c2n[nH]c3ccccc23)n1 [Compound 143] , I found its inhibition at 10 µM recorded as 94.9

Looking up Cn1c(C(=O)Nc2ccccc2/C=C/c2n[nH]c3ccccc23)cc2ccccc21 [Compound 55] , I found its inhibition at 10 µM recorded as 98.9

Looking up OCc1ccn(-c2ccccc2/C=C/c2n[nH]c3ccccc23)c1 [Compound 168] , I found its inhibition at 10 µM recorded as 99

Looking up O=C1c2ccccc2C(=O)N1c1ccccc1/C=C/c1n[nH]c2ccccc12 [Compound 159] , I found its inhibition at 10 µM recorded as 99.9

Looking up Cc1cc(N)sc1C(=O)Nc1ccccc1/C=C/c1n[nH]c2ccccc12 [Compound 67] , I found its inhibition at 10 µM recorded as 95.6

Looking up Cc1ccsc1C(=O)Nc1ccccc1/C=C/c1n[nH]c2ccccc12 [Compound 41] , I found its inhibition at 10 µM recorded as 98.6

Looking up Cc1ncsc1C(=O)Nc1ccccc1/C=C/c1n[nH]c2ccccc12 [Compound 174] , I found its inhibition at 10 µM recorded as 103

Looking up CCN(CC)CCOc1ccc(NC(=O)c2sccc2C)c(/C=C/c2n[nH]c3ccccc23)c1 [Compound 237] , I found its inhibition at 10 µM recorded as 100

Looking up CC(=O)Nc1ccc(C(=O)Nc2ccccc2/C=C/c2n[nH]c3ccccc23)s1 [Compound 68] , I found its inhibition at 10 µM recorded as 97.4

Looking up COc1c(OCCN2CCCC2=O)ccc(/C=C/c2n[nH]c3ccccc23)c1NC(=O)c1sccc1C [Compound 337] , I found its inhibition at 10 µM recorded as 97.4

Looking up Cn1cccc1C(=O)Nc1ccccc1/C=C/c1n[nH]c2ccccc12 [Compound 29] , I found its inhibition at 10 µM recorded as 97.9

Looking up Nc1ccc(C(=O)Nc2ccccc2/C=C/c2n[nH]c3ccccc23)s1 [Compound 56] , I found its inhibition at 10 µM recorded as 99.3

Looking up OCCNCc1ccn(-c2ccccc2/C=C/c2n[nH]c3ccccc23)c1 [Compound 187] , I found its inhibition at 10 µM recorded as 98.2

Looking up O=C(Nc1ccccc1/C=C/c1n[nH]c2ccccc12)c1ccccc1[N+](=O)[O-] [Compound 74] , I found its inhibition at 10 µM recorded as 97.6

Looking up O=C1CCCN1c1ccccc1/C=C/c1n[nH]c2ccccc12 [Compound 208] , I found its inhibition at 10 µM recorded as 96.1

Looking up O=C(Nc1ccccc1/C=C/c1n[nH]c2ccccc12)c1ccccc1F [Compound 8] , I found its inhibition at 10 µM recorded as 99.5

Looking up Cc1cc(C(=O)Nc2ccccc2/C=C/c2n[nH]c3ccccc23)ccc1[N+](=O)[O-] [Compound 157] , I found its inhibition at 10 µM recorded as 96

Looking up Cc1c(C(=O)Nc2ccccc2/C=C/c2n[nH]c3ccccc23)sc2ccc(Cl)cc12 [Compound 58] , I found its inhibition at 10 µM recorded as 86

Looking up Nc1ccc2oc(-c3ccccc3/C=C/c3n[nH]c4ccccc34)nc2c1 [Compound 185] , I found its inhibition at 10 µM recorded as 93.2

Looking up O=C(Nc1ccccc1/C=C/c1n[nH]c2ccccc12)c1cccc([N+](=O)[O-])c1 [Compound 64] , I found its inhibition at 10 µM recorded as 97

Looking up CC1=C(C)C(=O)N(c2ccccc2/C=C/c2n[nH]c3ccccc23)C1=O [Compound 204] , I found its inhibition at 10 µM recorded as 99.8

Looking up Nc1ccc(C(=O)Nc2ccccc2/C=C/c2n[nH]c3ccccc23)cc1 [Compound 70] , I found its inhibition at 10 µM recorded as 101

Looking up Cc1ccsc1C(=O)Nc1cc(CN2CCN(CCC#N)CC2)ccc1/C=C/c1n[nH]c2ccccc12 [Compound 268] , I found its inhibition at 10 µM recorded as 101

Looking up C(=C\c1cccc2nc(-c3cccs3)oc12)/c1n[nH]c2ccccc12 [Compound 149] , I found its inhibition at 10 µM recorded as 70

Looking up O=C1CCCCN1c1ccccc1/C=C/c1n[nH]c2ccccc12 [Compound 206] , I found its inhibition at 10 µM recorded as 101

Looking up Cn1cc(N)cc1C(=O)Nc1ccccc1/C=C/c1n[nH]c2ccccc12 [Compound 76, trifluoroacetate] , I found its inhibition at 10 µM recorded as 99.2

Looking up Cc1ccc(C(=O)Nc2ccccc2/C=C/c2n[nH]c3ccccc23)cc1 [Compound 5] , I found its inhibition at 10 µM recorded as 99.1

Looking up CC(=O)NC1CCN(C(=O)c2ccc(/C=C/c3n[nH]c4ccccc34)c(NC(=O)c3sccc3C)c2)CC1 [Compound 301] , I found its inhibition at 10 µM recorded as 98.3

Looking up COc1ccc(/C=C/c2n[nH]c3ccccc23)c(NC(=O)c2sccc2C)c1OC [Compound 261] , I found its inhibition at 10 µM recorded as 101

Looking up CN(C(=O)c1ccc[nH]1)c1cc(C(=O)N2CCOCC2)ccc1/C=C/c1n[nH]c2ccccc12 [Compound 217, hydrochloride] , I found its inhibition at 10 µM recorded as 96.6

Looking up COCCN(C)Cc1ccc(/C=C/c2n[nH]c3ccccc23)c(NC(=O)c2sccc2C)c1 [Compound 252] , I found its inhibition at 10 µM recorded as 101

Looking up O=C1c2ccccc2C(=O)N1c1cc2c(cc1/C=C/c1n[nH]c3ccccc13)OCO2 [Compound 151] , I found its inhibition at 10 µM recorded as 100

Looking up Cn1cccc1C(=O)Nc1ccc(N2CCOCC2)cc1/C=C/c1n[nH]c2ccccc12 [Compound 226, hydrochloride] , I found its inhibition at 10 µM recorded as 97.8

====

TEST SYSTEM: IGF-1R (Homo sapiens, UniProt P08069)
Construct: purchased Upstate Co. 14-465
Sequence (P08069 959-1367 limits assumed): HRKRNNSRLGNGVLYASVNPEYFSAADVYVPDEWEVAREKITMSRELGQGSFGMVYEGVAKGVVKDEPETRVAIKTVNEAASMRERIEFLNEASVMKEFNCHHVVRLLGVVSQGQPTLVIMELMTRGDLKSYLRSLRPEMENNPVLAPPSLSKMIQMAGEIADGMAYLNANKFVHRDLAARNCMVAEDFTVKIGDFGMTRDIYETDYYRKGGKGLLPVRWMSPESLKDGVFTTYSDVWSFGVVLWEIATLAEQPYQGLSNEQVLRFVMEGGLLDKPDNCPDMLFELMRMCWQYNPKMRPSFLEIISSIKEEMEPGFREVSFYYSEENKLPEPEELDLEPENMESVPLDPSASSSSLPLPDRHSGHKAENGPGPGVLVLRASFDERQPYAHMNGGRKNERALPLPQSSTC
TEST SUMMARY: IGF-1R inhibitory activity (kinase reaction, time-resolved fluoroimmunoassay)
Type: biochemical
CONDITION PARAMETERS: IGF-1R active recombinant enzyme, test compound 10 μmol/L
Assign inhibition at 10 µM to each entry below.
Answer format reminder: number followed by unit.

# value of inhibition at 10 µM, IGF-1R (Homo sapiens, UniProt P08069), item O=C(Nc1ccccc1/C=C/c1n[nH]c2ccccc12)c1cccs1 = 96.5%

# value of inhibition at 10 µM, IGF-1R (Homo sapiens, UniProt P08069), item Cc1ccsc1C(=O)Nc1cc(CN2CCNC[C@@H]2C)ccc1/C=C/c1n[nH]c2ccccc12 = 101%

# value of inhibition at 10 µM, IGF-1R (Homo sapiens, UniProt P08069), item O=C1c2ccccc2C(=O)N1c1cccc(Cl)c1/C=C/c1n[nH]c2ccccc12 = 97.1%

# value of inhibition at 10 µM, IGF-1R (Homo sapiens, UniProt P08069), item COCCN1CCN(c2ccc(/C=C/c3n[nH]c4ccccc34)c(NC(=O)c3sccc3C)c2)CC1 = 98.2%

# value of inhibition at 10 µM, IGF-1R (Homo sapiens, UniProt P08069), item CCNC(=O)Nc1ccccc1/C=C/c1n[nH]c2ccccc12 = 88.2%

# value of inhibition at 10 µM, IGF-1R (Homo sapiens, UniProt P08069), item Cn1cc([N+](=O)[O-])cc1C(=O)Nc1ccccc1/C=C/c1n[nH]c2ccccc12 = 98.5%

# value of inhibition at 10 µM, IGF-1R (Homo sapiens, UniProt P08069), item O=C(Cc1cccs1)Nc1ccccc1/C=C/c1n[nH]c2ccccc12 = 86%

# value of inhibition at 10 µM, IGF-1R (Homo sapiens, UniProt P08069), item CN(C(=O)c1ccccc1)c1ccccc1/C=C/c1n[nH]c2ccccc12 = 93%

====

TEST SYSTEM: IGF-1R (Homo sapiens)
Construct: purchased Upstate Co. 14-465
TEST SUMMARY: IGF-1R inhibitory activity (kinase reaction, time-resolved fluoroimmunoassay)
Format: biochemical
CONDITION PARAMETERS: IGF-1R active recombinant enzyme, test compound 10 μmol/L
Where a name gives a salt, the structure may show the parent alone.
OBSERVABLE: inhibition at 10 µM (%)
Enter your answer as a number in %; do not include the unit.

# value of inhibition at 10 µM, IGF-1R (Homo sapiens), item CC(=O)N1CCN(c2ccccc2/C=C/c2n[nH]c3ccccc23)CC1 = 70.4

# value of inhibition at 10 µM, IGF-1R (Homo sapiens), item O=C1c2ccncc2C(=O)N1c1ccccc1/C=C/c1n[nH]c2ccccc12 [Compound 198, hydrochloride] = 87.2

# value of inhibition at 10 µM, IGF-1R (Homo sapiens), item Nc1ccc2c(c1)C(=O)N(c1ccccc1/C=C/c1n[nH]c3ccccc13)C2=O = 100

# value of inhibition at 10 µM, IGF-1R (Homo sapiens), item Cc1ccsc1C(=O)Nc1cc(CNCCN2CCOCC2)ccc1/C=C/c1n[nH]c2ccccc12 = 99.9

# value of inhibition at 10 µM, IGF-1R (Homo sapiens), item O=C(Nc1ccccc1/C=C/c1n[nH]c2ccccc12)c1ccncc1 = 99.1

# value of inhibition at 10 µM, IGF-1R (Homo sapiens), item Cc1ccsc1C(=O)Nc1cc(CN2CCC(CCO)CC2)ccc1/C=C/c1n[nH]c2ccccc12 = 104

# value of inhibition at 10 µM, IGF-1R (Homo sapiens), item COCCN(C)CCCOc1cc(NC(=O)c2sccc2C)c(/C=C/c2n[nH]c3ccccc23)cc1OC = 94.2

# value of inhibition at 10 µM, IGF-1R (Homo sapiens), item Cc1ccsc1C(=O)Nc1cc(N2CCN(S(C)(=O)=O)CC2)ccc1/C=C/c1n[nH]c2ccccc12 = 101

# value of inhibition at 10 µM, IGF-1R (Homo sapiens), item O=C1c2ccsc2C(=O)N1c1ccccc1/C=C/c1n[nH]c2ccccc12 = 99.5

# value of inhibition at 10 µM, IGF-1R (Homo sapiens), item COCCN(CCN(C)C)C(=O)c1ccc(/C=C/c2n[nH]c3ccccc23)c(NC(=O)c2sccc2C)c1 [Compound 241, hydrochloride] = 101

# value of inhibition at 10 µM, IGF-1R (Homo sapiens), item O=C1c2cccc(O)c2C(=O)N1c1ccccc1/C=C/c1n[nH]c2ccccc12 = 67.5

# value of inhibition at 10 µM, IGF-1R (Homo sapiens), item COc1c(OCCCN2CCC(O)CC2)ccc(/C=C/c2n[nH]c3ccccc23)c1NC(=O)c1sccc1C = 97.4

# value of inhibition at 10 µM, IGF-1R (Homo sapiens), item CS(=O)(=O)c1ccc(C(=O)Nc2ccccc2/C=C/c2n[nH]c3ccccc23)s1 = 97.1

# value of inhibition at 10 µM, IGF-1R (Homo sapiens), item OCCCc1nc(-c2ccccc2/C=C/c2n[nH]c3ccccc23)no1 = 98.1

# value of inhibition at 10 µM, IGF-1R (Homo sapiens), item O=C(Nc1ccccc1/C=C/c1n[nH]c2ccccc12)C1CCCO1 (centres unmarked) = 98.6

# value of inhibition at 10 µM, IGF-1R (Homo sapiens), item O=C(Nc1cccnc1)c1ccccc1/C=C/c1n[nH]c2ccccc12 = 92.8

# value of inhibition at 10 µM, IGF-1R (Homo sapiens), item O=C(Nc1ccccc1/C=C/c1n[nH]c2ccccc12)C1CCC1 = 98
